Measurement record for MDA-MB-435; quantity recorded: GI50.

CS(=O)CCCCCN=C=S (centres undefined)    3.57 µM
NC(=NCCCOc1ccc(Cl)cc1)Nc1ccc(Cl)cc1    1.76 µM
CN(C)c1ccc(/C=C(/NC(=O)c2ccccc2)c2nc3ccc(Cl)cc3[nH]2)cc1    29.8 µM

-- ask Please tell me: GI50 of COCC1CCCN1c1ccc(/C=C(/C#N)C(N)=S)cc1 (centres undefined) , system MDA-MB-435?
-- reply 15 µM

-- ask Fill in the recorded GI50 for this compound, with MDA-MB-435 as test system: "COc1ccc(-c2ccc(/C=N/n3c(COc4ccccc4Cl)nn(CN4CCN(C)CC4)c3=S)o2)c([N+](=O)[O-])c1"
-- reply 18.3 µM

-- ask API: value(readout= GI50, system= MDA-MB-435, query= "CCOC(=O)c1sc2nc3sc(N=Nc4ccc(Cl)cc4)c(O)n3c(=S)c2c1C" )
-- reply 35.2 µM

-- ask For MDA-MB-435, provide GI50 of "Cc1cccc(Oc2nccc(-c3c(-c4ccc(F)cc4)ncn3C3CCNCC3)n2)c1C" please.
-- reply 6.52 µM

-- ask Value wanted: GI50 (MDA-MB-435) of entry "CCN(CC)c1cc(/C=C/c2ccc(OC)c(OC)c2)nc2cc(F)c(F)cc12"
-- reply > 100 µM

-- ask Param readout = GI50; param system = MDA-MB-435; param query = "C=C1C[C@](OC)([C@H](O)C(=O)N[C@@H](OC)[C@@H]2C[C@@H](O)C(C)(C)[C@@H](C[C@@H](COC)OC)O2)O[C@H](C)[C@@H]1C" ; response: value
-- reply 0.00162 µM

* * *

// reported GI50 for each item listed
tested on: SK-MEL-5 melanoma; assay: NCI tumour cell line growth inhibition, 48 h

-- ask State the recorded GI50 for this entry: "CC(=O)c1ccc(NC(=O)CSc2nnc(-c3cc(-c4ccc(C)cc4)nc4ccccc34)o2)cc1"
-- reply 3.42 µM

* * *

test system: K-562 leukemia; assay: NCI tumour cell line growth inhibition, 48 h
Parameter: GI50. Scope: all listed entries.

Use the examples below as a reference point.
C=C(C)[C@@H]1CC[C@]2(C)[C@H](C(=O)C=C3[C@@H]4C[C@](C)(C(=O)N5CCN(C)CC5)CC[C@]4(C)CC[C@]32C)[C@@]1(C)CCC#N    2750 nM
CCC(C)n1cc(C)c2c(C(=O)NCc3c(C)cc(C)[nH]c3=O)cc(Br)cc21 (centres undefined)    34600 nM
O=C1C(Br)=CC2(C=C1Br)CCN=c1c2c(O)c2nc3ccccc3c3ccnc1c23    1800 nM
COc1ccc(Nn2c(SCC(=O)Nc3nc(-c4ccc(Cl)cc4)cs3)nc(C)c2C)cc1    1580 nM
CCCCCCCC/C=C/CCCCCCCC1=NCC[N+]1(CCO)CCO    1520 nM
O=C(OCc1ccccc1)N1CCN(/[N+]([O-])=N/Oc2ccc([N+](=O)[O-])cc2[N+](=O)[O-])CC1    4070 nM

-- ask Please look up its GI50: "CCC[CH2][Sn]([CH2]CCC)([O]C(=O)c1cc(F)cc(F)c1)[O]C(=O)c1cc(F)cc(F)c1"
-- reply 228 nM

-- ask I would be grateful if you could share the reported GI50 for "CC(=O)N1CC(Nc2ccc(OC(F)(F)F)cc2)=CC1=O" .
-- reply 526 nM

-- ask For the molecule "COc1ccc(C(=O)c2ccc(OC)c(OC)c2OC)cc1" , what GI50 is on record?
-- reply 351 nM
